- TGT: Mts1 (S100A4) protein, recombinant human (human) (UniProt P26447)
- Sequence (P26447 whole entry): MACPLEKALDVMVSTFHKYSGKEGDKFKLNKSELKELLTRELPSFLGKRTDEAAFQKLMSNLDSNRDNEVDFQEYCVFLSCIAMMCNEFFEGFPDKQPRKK
- PROTOCOL TEXT: MST; Mts1 labelled with Alexa Fluor 633 (200 nM), preincubated 20 min in the dark at room temperature with 16 concentrations of Tag7 or peptide; Monolith NT.115, 10% IR laser power; apparent Kd
QUANTITY MEASURED: pKd
// returns pKd (minus log10 of molar concentration), number only

// sample Tag7 (PGLYRP1) protein, recombinant (from UniProt O88593 19-182) (natural protein) , its pKd was 5.04
